experiment: Acute Toxicity Study; type: in vivo; conditions: rat, in vivo, ip; intraperitoneal
measurement.name: LD50 at 168 h (mg/kg)
One number for each entry, in mg/kg.

Sample Cc1nc(OCCCCCN2CCCCC2)cc(-c2ccc(F)cc2)n1.Cl ; LD50 at 168 h observed: 65.8

* * *

tested on: pyramidal cells in the hippocampal CA-1 subfield; assay: Delayed Neuronal Death (DND) Inhibitory Activity in Gerbils (transient ischemia, bilateral common carotid artery occlusion); assay type: in vivo; conditions: 50 mg/kg i.p., given at reperfusion after 5-minute ischemia; score 0 (0-10% death) to 4 (75-100% death); control 4.00; n=5; **: p < 0.01 (Wilcoxon's U test)
Would you kindly list DND inhibition (score of neuronal death in the hippocampal CA-1 subfield) for each of these molecules?
Give bare numbers.

// solved cases for DND inhibition (score of neuronal death in the hippocampal CA-1 subfield) follow
> print(dat)
                                   molecule  experimental.result
1  Cc1nc(OCCCN2CCCCC2)cc(-c2ccc(F)cc2)n1.Cl [Reference Example 10]                 0.60
2  Cc1nc(OC(C)CCCN2CCCCC2)cc(-c2ccc(F)cc2)n1.Cl (stereo not shown) [Example 21]                 0.60

Record DND inhibition (score of neuronal death in the hippocampal CA-1 subfield) per entry; entries follow.
1. Cc1nc(OCCCCN2CCCCC2)cc(-c2ccc(F)cc2)n1.Cl [Example 2]
2. Cc1cc(-c2ccc(F)cc2)cc(OCCCN2CCCCC2)n1.Cl [Example 16]
3. Cc1cc(OCCCCN2CCCCC2)nc(-c2ccc(F)cc2)n1.Cl [Example 4]
4. Cc1cc(-c2ccc(F)cc2)cc(OCCCCCN2CCCCC2)n1.Cl [Example 18]

Reply |
[0.80, 0.60, 0.60, 0.80]

Measured DND inhibition (score of neuronal death in the hippocampal CA-1 subfield) for this entry Cc1nc(OCCCCCN2CCCCC2)cc(-c2ccc(F)cc2)n1.Cl [Example 1] on pyramidal cells in the hippocampal CA-1 subfield: 0.60
